Recorded kon by entry
# Subject Of Test: T1, recombinant human CSF-1R (form not stated) (human, UniProt P07333 20-512, limits assumed)
# T1 construct: for the ELISA no species is stated; also called recombinant CSF-1R; recombinant CSF-1R protein
# Test Details: BIAcore, experiment 2 of 3
# Description: The assay format was capture of the anti-CSF-1R antibodies by immobilised anti-human IgG,F(ab′)₂, then a titration of hCSF-1R/Fc over the captured surface. BIA (Biomolecular Interaction Analysis) was performed using a BIAcore 3000 (GE Healthcare Bio-Sciences AB). All experiments were performed at 25° C. […]
I only need the number, in M⁻¹ s⁻¹, no unit after it.

Please review the following examples before continuing.
# Binder, Measured Parameter, Endpoint Unit, Recorded Number
rows = [
    ("969gH2gL1 (antibody, human IgG4 S228P, kappa, name in Kabat numbering, V domains shown, Humanised IgG4 (S241P)/kappa; positions are Kabat; also called Ab969.g6) VH: EVTLKESGPALVKPTQTLTLTCTFSGFSLTTYGMGVGWIRQPPGKALEWLANIWWDDDKYYNPSLKNRLTISKDTSKNQVVLTMTNMDPVDTATYYCARIGPIKYPTAPYRYFDFWGQGTMVTVSS VL: DIQMTQSPSSLSASVGDRVTITCLASEDIYDNLAWYQKKPGKAPKLLIYYASSLQDGVPSRFSGSGSGTDYTLTISSLQPEDFATYFCLQDSEYPWTFGGGTKVEIKR", "kon", "M⁻¹ s⁻¹", "2.44e+06"),
    ("969gH2gL8 (antibody, human IgG4 S228P, kappa, name in Kabat numbering, V domains shown, Humanised IgG4 (S241P)/kappa, no donor residues; position is Kabat; also called Ab969.g4) VH: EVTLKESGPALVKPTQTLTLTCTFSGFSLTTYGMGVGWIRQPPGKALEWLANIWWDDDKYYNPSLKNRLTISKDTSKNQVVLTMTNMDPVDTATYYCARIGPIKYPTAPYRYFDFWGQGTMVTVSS VL: DIQMTQSPSSLSASVGDRVTITCLASEDIYDNLAWYQQKPGKAPKLLIYYASSLQDGVPSRFSGSGSGTDFTLTISSLQPEDFATYYCLQDSEYPWTFGGGTKVEIKR", "kon", "M⁻¹ s⁻¹", "1.94e+06"),
    ("969gH1gL1 (antibody, human IgG4 S228P, kappa, name in Kabat numbering, V domains shown, Humanised IgG4 (S241P)/kappa; positions are Kabat; also called Ab969.g1) VH: EVTLKESGPALVKPTQTLTLTCTFSGFSLTTYGMGVGWIRQPPGKALEWLANIWWDDDKYYNPSLKNRLTISKDTSKNQAVLTMTNMDPVDTATYYCARIGPIKYPTAPYRYFDFWGQGTMVTVSS VL: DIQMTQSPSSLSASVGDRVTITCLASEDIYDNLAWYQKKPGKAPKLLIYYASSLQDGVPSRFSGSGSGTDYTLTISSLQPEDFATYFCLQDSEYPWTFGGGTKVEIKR", "kon", "M⁻¹ s⁻¹", "2.57e+06"),
    ("chimeric antibody 969 (rat variable regions, human gamma-4 heavy chain constant region and human kappa chain constant region) (antibody, human IgG4, V domains shown, Alexa-488 label in the cell-based affinity assay; not carried by the letters., Full-length human IgG4 (S241P)/kappa chimeric; also called Ab969) VH: QVTLKESGPGILQPSQTLSLTCTFSGFSLTTYGMGVGWIRQPSGKGLEWLANIWWDDDKYYNPSLKNRLTISKDTSNNQAFLKLTNVHTSDSATYYCARIGPIKYPTAPYRYFDFWGPGTMVTVSS VL: DIQMTQSPASLSASLGETVSIECLASEDIYDNLAWYQKKPGKSPHLLIYYASSLQDGVPSRFSGSGSGTQYSLKINSLESEDAATYFCLQDSEYPWTFGGGTKLELKR", "kon", "M⁻¹ s⁻¹", "2.79e+06"),
]

Tell me the measured kon of 969gH2gL4 (antibody, human IgG4 S228P, kappa, name in Kabat numbering, V domains shown, Humanised IgG4 (S241P)/kappa; positions are Kabat; also called Ab969.g7) VH: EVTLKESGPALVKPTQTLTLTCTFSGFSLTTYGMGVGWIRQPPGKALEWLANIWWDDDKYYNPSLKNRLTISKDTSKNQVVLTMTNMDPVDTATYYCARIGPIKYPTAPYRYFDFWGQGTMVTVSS VL: DIQMTQSPSSLSASVGDRVTITCLASEDIYDNLAWYQKKPGKAPKLLIYYASSLQDGVPSRFSGSGSGTDYTLTISSLQPEDFATYYCLQDSEYPWTFGGGTKVEIKR , please.
2.6e+06
